Taken from patent US20070117743A1.

Test system: IGROV-1
Assay: SRB colorimetric assay of cell growth and viability, IGROV-1
Assay type: cell-based, human
Conditions: 48 hours exposure, SRB
observedProperty: LC50 (concentration causing 50% net cell killing) (nM)
The response must be a number in nM with no trailing unit.

Look over these answered cases.
{"columns": ["compound", "studyTarget", "unit", "numericValue"],
 "data": [
  ["C/C=C1\\NC(=O)[C@H](Cc2ccc(I)cc2)NC(=O)[C@@H](C(C)C)NC(=O)[C@@H]([C@@H](C)CC)NC(=O)[C@H](NC(=O)[C@H](NC(=O)[C@H](CCCN)NC(=O)[C@H]2CCCN2C(=O)[C@H](NC(=O)[C@@H](NC(=O)[C@@H](NC(=O)[C@H](NC(=O)CC[C@@H](C)CC)C(C)C)[C@@H](C)O)C(C)C)C(C)C)[C@@H](C)CC)[C@@H](C)OC(=O)[C@H](C(C)C)NC1=O [Compound 72, [Phe(4-I)^3, (4S)-MeHex^14]-KF]", "IGROV-1", "nM", 443],
  ["C/C=C1\\NC(=O)[C@H](Cc2ccccc2)N(C)C(=O)[C@@H](C(C)C)NC(=O)[C@@H]([C@@H](C)CC)NC(=O)[C@H](NC(=O)[C@H](NC(=O)[C@H](CCCN)NC(=O)[C@H]2CCCN2C(=O)[C@H](NC(=O)[C@@H](NC(=O)[C@@H](NC(=O)[C@H](NC(=O)CC[C@@H](C)CC)C(C)C)[C@@H](C)O)C(C)C)C(C)C)[C@@H](C)CC)[C@@H](C)OC(=O)[C@H](C(C)C)NC1=O [Compound 80, [NMePhe^3, (4S)-MeHex^14]-KF]", "IGROV-1", "nM", 2820],
  ["C/C=C1\\NC(=O)[C@H](Cc2ccccc2)NC(=O)[C@@H](C(C)C)NC(=O)[C@@H]([C@@H](C)CC)NC(=O)[C@H](NC(=O)[C@H](NC(=O)[C@H](CCCC[N+](C)(C)C)NC(=O)[C@H]2CCCN2C(=O)[C@H](NC(=O)[C@@H](NC(=O)[C@@H](NC(=O)[C@H](NC(=O)CC[C@@H](C)CC)C(C)C)[C@@H](C)O)C(C)C)C(C)C)[C@@H](C)CC)[C@@H](C)OC(=O)[C@H](C(C)C)NC1=O [Compound 93, [N^ε(Me)3-Lys^8, (4S)-MeHex^14]-KF]", "IGROV-1", "nM", 866]
]}

Data request, read-out LC50 (concentration causing 50% net cell killing), for C/C=C1\NC(=O)[C@H](Cc2c(F)c(F)c(F)c(F)c2F)NC(=O)[C@@H](C(C)C)NC(=O)[C@@H]([C@@H](C)CC)NC(=O)[C@H](NC(=O)[C@H](NC(=O)[C@H](CCCN)NC(=O)[C@H]2CCCN2C(=O)[C@H](NC(=O)[C@@H](NC(=O)[C@@H](NC(=O)[C@H](NC(=O)CC[C@@H](C)CC)C(C)C)[C@@H](C)O)C(C)C)C(C)C)[C@@H](C)CC)[C@@H](C)OC(=O)[C@H](C(C)C)NC1=O [Compound 71, [Phe(F5)^3, (4S)-MeHex^14]-KF]
2720

Need LC50 (concentration causing 50% net cell killing) of C/C=C1\NC(=O)[C@H](Cc2ccccc2)NC(=O)[C@@H](C(C)C)NC(=O)[C@@H]([C@@H](C)CC)NC(=O)[C@H](NC(=O)[C@H](NC(=O)[C@H](CCCNC(=O)C(F)(F)F)NC(=O)[C@H]2CCCN2C(=O)[C@H](NC(=O)[C@@H](NC(=O)[C@@H](NC(=O)[C@H](NC(=O)CC[C@@H](C)CC)C(C)C)[C@@H](C)O)C(C)C)C(C)C)[C@@H](C)CC)[C@@H](C)OC(=O)[C@H](C(C)C)NC1=O [Compound 96] , thanks.
607

Data request, read-out LC50 (concentration causing 50% net cell killing), for C/C=C1\NC(=O)[C@H](Cc2ccccc2)NC(=O)[C@@H](C(C)C)NC(=O)[C@@H]([C@@H](C)CC)NC(=O)[C@H](NC(=O)[C@H](NC(=O)[C@H](CCCN)NC(=O)[C@H]2CCCN2C(=O)[C@H](NC(=O)[C@@H](NC(=O)[C@@H](NC(=O)[C@H](NC(=O)CC[C@@H](C)[C@H]2CC[C@H]3[C@@H]4CC[C@@H]5C[C@H](OC(=O)C(F)(F)F)CC[C@]5(C)[C@H]4CC[C@]23C)C(C)C)[C@@H](C)OC(=O)C(F)(F)F)C(C)C)C(C)C)[C@@H](C)CC)[C@@H](C)OC(=O)[C@H](C(C)C)NC1=O [Compound 97]
2200
